This collection of values is drawn from PubChem BioAssay AID270.

test system: BDF1 mice, s.c. Lewis lung carcinoma, T/C %; experiment: NCI In Vivo Anticancer Drug Screen. Data for tumor model Lewis Lung Carcinoma (subcutaneous) in B6D2F1 (BDF1) mice; settings: endpoint: median survival time; dose: 50.0 mg/kg/injection; schedule: Q01DX009 (ip); vehicle: saline with Tween-80; higher = longer survival
Results filed as inconclusive are left out.
QUANTITY_NAME: T/C

Here are 3 compounds together with their reported answers.
CC1CCCCN1CCNc1ccc(CO)c2sc3ccccc3c(=O)c12 (configuration not stated) :: 100 % of control
Nc1cc2nc3ccccc3sc-2cc1=O :: 104 % of control
NC(=S)N/N=C\c1nccc2c(N)cccc12 :: 105 % of control

Hi! Can you tell me T/C for each of these compounds?
1. Nc1nc2[nH]c(=O)cnc2c(=O)[nH]1
2. CC(C)=CC1C(C(=O)OCc2ccc(C)cc2C)C1(C)C (configuration not stated)
3. CCCCOB(/C=C/Sc1ccccc1)OCCCC
4. C/C(=C\c1ccc(C)cc1)[N+](=O)[O-]
5. CC(C)CNc1ccc(S(=O)(=O)c2ccc(NCC(C)C)c([N+](=O)[O-])c2)cc1[N+](=O)[O-]
6. O=c1[nH]c(=O)n(C2CC(O)C(CO)O2)cc1F (configuration not stated)

["99 % of control", "89 % of control", "95 % of control", "95 % of control", "86 % of control", "116 % of control"]

Below are some compounds; for each one, tell me its T/C.
1. Nc1nc2c(ncn2C2OC(CO)C(O)C2N)c(=O)[nH]1 (configuration not stated)
2. CC(=O)Oc1ccc(/C=N/NC(N)=S)nc1
3. Cc1cc(N(CCCl)CCCl)ccc1C=Nc1cccnc1

110 % of control
107 % of control
92 % of control
